This listing pairs compounds with measured composite z-score.
# Test: small-molecule binders of probe aLefty1, primary screen, biochemical, small-molecule microarray, 635/667 nm fluorescence (AID 1153);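 also: score merges spot fluorescence with signal-to-noise ratio from the scanned slide images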
# Setup conditions: higher = more signal
Just the number.

Compound	composite z-score
NC(=O)NCC#Cc1ccc2c(c1)[C@]1(C(=O)N2)[C@H](c2ccc(O)cc2)N2[C@H](c3ccccc3)[C@H](c3ccccc3)OC(=O)[C@H]2[C@@H]1C(=O)Nc1nc2ccccc2s1	0.127
CN1C(=O)C2C=CC(C(O)c3c(F)cccc3Cl)N(Nc3ccccc3)C2C1=O (stereo not drawn)	0.277

Turning to the following compound.
*Q* I have this compound here, CCOC(=O)C1=C[C@@H](c2ccccc2)N(S(=O)(=O)c2ccc(C)cc2)[C@H]1c1cccc(Cl)c1 , and I need its recorded composite z-score.
*A* 0.409
